Biological target: mTORC1 (mTOR/GbL/Raptor) (Homo sapiens)
Assay: mTOR/GbL/Raptor (mTORC1) ELISA Assay
Type: biochemical
Settings: 0.2 nM mTORC1, 10 μM ATP, 50 nM NHis-tagged 4E-BP1; phosphorylation of 4E-BP1; read-out: IC50
Entries and their IC50 values follow.

# annotated cases, reported IC50 shown
O=C1CCN(C(=O)N2CCOc3ccc(-c4ccc(-c5ncc[nH]5)cc4)cc3C2)[C@@H](c2ccc(F)cc2)C1 | ≤ 50 nM
CCOC(=O)[C@H]1CCCN(C(=O)N2CCOc3ccc(-c4ccc5nc(C)[nH]c5c4)cc3C2)C1 | 250 to 700 nM
Cc1nc2ccc(-c3ccc4c(c3)CN(C(=O)N3CC5CCCC5C3)CCO4)cc2[nH]1 (centres unmarked) | 50 to 250 nM
Cc1nc2ccc(-c3ccc4c(c3)CN(C(=O)N3CCC(O)(c5ccc(F)cc5)CC3)CCO4)cc2[nH]1 | ≤ 50 nM
CC1CCN(C(=O)N2CCOc3ccc(-c4cnc(N)nc4)cc3C2)CC1 | 700 to 2600 nM
Cc1nc2ccc(-c3ccc4c(c3)CN(C(=O)N3CCCCC3)CCO4)cc2[nH]1 | 250 to 700 nM

Q) Tell me the measured IC50 of `Cc1nc2ccc(-c3ccc4c(c3)CN(C(=O)N(C)[C@H](C)c3ccccc3)CCO4)cc2[nH]1` , please.
A) ≤ 50 nM

Q) Tell me the measured IC50 of O=C1CCN(C(=O)N2CCOc3ccc(-c4ccc(C(=O)NCC(F)F)cc4)cc3C2)C(c2cccc(F)c2)C1 (centres unmarked) , please.
A) 50 to 250 nM
